Reported solubility (g/100 g solution) by item:
- procedure text: xn = mol fraction of the nth substance listed, in the solute-free solvent
- conditions used: 308.15 K; x2 = 0.7297
# output: bare number, no unit

c1ccc2[nH]c(-c3cscn3)nc2c1 + CCCO + O : 0.79
Nc1nccnc1Cl + CC(C)O + O : 1.45
CN1CCN(C2=Nc3cc(Cl)ccc3Nc3ccccc32)CC1 + CC(C)O + O : 2.37
Cc1[nH]c(=O)c(C#N)cc1-c1ccncc1 + CC(C)O + O : 0.0214
Nc1cccc(S(=O)(=O)c2cccc(N)c2)c1 + CC(C)O + O : 1.38

Now look at this one.
Problem: Using the record for c1ccc2[nH]c(-c3cscn3)nc2c1 + CC(C)O + O , report its solubility (g/100 g solution).
Solution: 0.413

---

- procedure text: xn = mol fraction of the nth substance listed, in the solute-free solvent
- conditions used: 313.15 K; x2 = 0.9
Kind request: treat 8 as inclusive, so solubility (g/100 g solution) at 8 or higher is 1, anything lower is 0.

Reference set, count: 6
S=c1[nH]ncs1 + CCCO + O : 1
OCCN(CCO)c1nc(N2CCCCC2)c2nc(N(CCO)CCO)nc(N3CCCCC3)c2n1 + CCO + O : 1
Cc1ncc(C[n+]2csc(CCO)c2C)c(N)n1.O=[N+]([O-])[O-] + O + CC(C)O : 0
S=c1[nH]ncs1 + CO + O : 1
CC(N)C(=O)O (stereo not given) + O + CO : 1
CC(N)C(=O)O (stereo not given) + O + CC(C)=O : 0

Problem: Item CC(N)C(=O)O (stereo not given) + O + CC(C)O with solubility (g/100 g solution) of 8 or above?
Solution: 0

Problem: Say whether S=c1[nH]ncs1 + CC(C)=O + O shows solubility (g/100 g solution) of 8 or more.
Solution: 1

Problem: // inclusive: solubility (g/100 g solution) at least 8? input: OCCN(CCO)c1nc(N2CCCCC2)c2nc(N(CCO)CCO)nc(N3CCCCC3)c2n1 + CO + O
Solution: 1

Problem: Exam item: decide whether the reported solubility (g/100 g solution) for Cc1ncc(C[n+]2csc(CCO)c2C)c(N)n1.O=[N+]([O-])[O-] + O + CO is at least 8.
Solution: 0

Problem: Is solubility (g/100 g solution) at least 8? Consider S=c1[nH]ncs1 + CCO + O
Solution: 1

Problem: Record CC(N)C(=O)O (stereo not given) + O + CCCO ; criterion: solubility (g/100 g solution) no lower than 8. Met?
Solution: 1

Problem: Entry Cc1ncc(C[n+]2csc(CCO)c2C)c(N)n1.O=[N+]([O-])[O-] + O + CC(C)=O : is its solubility (g/100 g solution) no less than 8?
Solution: 0

Problem: Does solubility (g/100 g solution) meet or surpass 8 for OCCN(CCO)c1nc(N2CCCCC2)c2nc(N(CCO)CCO)nc(N3CCCCC3)c2n1 + CC(C)O + O ?
Solution: 1

---

- procedure text: xn = mol fraction of the nth substance listed, in the solute-free solvent
- conditions used: 298.15 K; x2 = 0.2812
outcome measure: solubility (g/100 g solution)
Number only, no unit.

COc1cc2c(cc1OC)-c1cc3ccc(OC)c(OC)c3c[n+]1CC2.[Cl-] + CCO + O : 2.96
Cc1[nH]c(=O)c(C#N)cc1-c1ccncc1 + CCO + O : 0.0039
CC(C)OC(=O)C(C)NP(=O)(OCC1OC(n2ccc(=O)[nH]c2=O)C(C)(F)C1O)Oc1ccccc1 (centres undefined) + CCO + O : 18.1

For the next question, use this molecule.
Problem: Which solubility (g/100 g solution) value is on record for Nc1cccc(S(=O)(=O)c2cccc(N)c2)c1 + CCO + O ?
Solution: 0.874

---

- procedure text: xn = mol fraction of the nth substance listed, in the solute-free solvent
- conditions used: 293.15 K; x2 = 0.8
outcome measure: solubility (g/100 g solution)
Give the figure only, with no unit attached.

OCCN(CCO)c1nc(N2CCCCC2)c2nc(N(CCO)CCO)nc(N3CCCCC3)c2n1 + CCO + O : 5.06
CC(N)C(=O)O (stereo unspecified) + O + CC(C)=O : 1.34
Cc1ncc(C[n+]2csc(CCO)c2C)c(N)n1.O=[N+]([O-])[O-] + O + CO : 2.04

Problem: Entry under review: S=c1[nH]ncs1 + CCO + O . Reported solubility (g/100 g solution)?
Solution: 13.3

Problem: # get_value(readout='solubility (g/100 g solution)', item= CC(N)C(=O)O (stereo unspecified) + O + CC(C)O )
Solution: 2.08

Problem: Item under review: CC(N)C(=O)O (stereo unspecified) + O + CO . Reported solubility (g/100 g solution)?
Solution: 4.26

---

- procedure text: xn = mol fraction of the nth substance listed, in the solute-free solvent
- conditions used: 308.15 K; x2 = 0.3103
Classification field: yes (1) = solubility (g/100 g solution) at or over 1; no (0) = solubility (g/100 g solution) under 1.

c1ccc2[nH]c(-c3cscn3)nc2c1 + CC(C)O + O : no (0)
Nc1cccc(S(=O)(=O)c2cccc(N)c2)c1 + CC(C)O + O : yes (1)

Problem: Exam item: decide whether the reported solubility (g/100 g solution) for CN1CCN(C2=Nc3cc(Cl)ccc3Nc3ccccc32)CC1 + CC(C)O + O is at least 1.
Solution: yes (1)

Problem: Please check the record Nc1nccnc1Cl + CC(C)O + O and state if its solubility (g/100 g solution) is at or above 1.
Solution: yes (1)

Problem: hey, is solubility (g/100 g solution) for this one >= 1? Cc1[nH]c(=O)c(C#N)cc1-c1ccncc1 + CC(C)O + O
Solution: no (0)

Problem: Is reported solubility (g/100 g solution) greater than or equal to 1 here: c1ccc2[nH]c(-c3cscn3)nc2c1 + CCCO + O
Solution: no (0)

---

- procedure text: xn = mol fraction of the nth substance listed, in the solute-free solvent
- conditions used: 313.15 K; x2 = 0.03225
Decision: solubility (g/100 g solution) >= 0.04 yields rule met, all other cases yield rule not met.

Problem: Check the entry CN1CCN(C2=Nc3cc(Cl)ccc3Nc3ccccc32)CC1 + CC(C)O + O : does solubility (g/100 g solution) equal or exceed 0.04?
Solution: rule not met

Problem: Could you please find out whether Cc1[nH]c(=O)c(C#N)cc1-c1ccncc1 + CC(C)O + O has solubility (g/100 g solution) that meets 0.04 or exceeds it?
Solution: rule not met

Problem: Does solubility (g/100 g solution) meet or surpass 0.04 for Nc1cccc(S(=O)(=O)c2cccc(N)c2)c1 + CC(C)O + O ?
Solution: rule met

---

- procedure text: xn = mol fraction of the nth substance listed, in the solute-free solvent
- conditions used: 303.15 K; x2 = 0.4
outcome measure: solubility (g/100 g solution)
Just the number, please, no unit after it.

Below are worked cases with known answers.
S=c1[nH]ncs1 + CO + O : 8.48
CC(N)C(=O)O (stereo unspecified) + O + CO : 0.667
OCCN(CCO)c1nc(N2CCCCC2)c2nc(N(CCO)CCO)nc(N3CCCCC3)c2n1 + CCO + O : 5.59
CCCCCOC(=O)Nc1nc(=O)n(C2OC(C)C(O)C2O)cc1F (stereo unspecified) + CCOC(C)=O + CCCCCCC : 0.132
S=c1[nH]ncs1 + CCCO + O : 14.7
S=c1[nH]ncs1 + CC(C)=O + O : 27.1
CC(N)C(=O)O (stereo unspecified) + O + CC(C)=O : 0.0794
Cc1ncc(C[n+]2csc(CCO)c2C)c(N)n1.O=[N+]([O-])[O-] + O + CC(C)=O : 0.344
Cc1ncc(C[n+]2csc(CCO)c2C)c(N)n1.O=[N+]([O-])[O-] + O + CC(C)O : 0.243
CC(N)C(=O)O (stereo unspecified) + O + CCCO : 0.202

Problem: Which solubility (g/100 g solution) reading was recorded for the molecule OCCN(CCO)c1nc(N2CCCCC2)c2nc(N(CCO)CCO)nc(N3CCCCC3)c2n1 + CC(C)O + O ?
Solution: 12.4

---

solubility (g/100 g solution) reference
- procedure text: xn = mol fraction of the nth substance listed, in the solute-free solvent
- conditions used: 278.15 K; x2 = 0.9
Enter a number only.

Cc1ncc(C[n+]2csc(CCO)c2C)c(N)n1.O=[N+]([O-])[O-] + O + CC(C)=O : 1.85

Problem: Could you tell me which solubility (g/100 g solution) is on file for S=c1[nH]ncs1 + CC(C)=O + O ?
Solution: 21.4

Problem: Quick one: solubility (g/100 g solution) for Cc1ncc(C[n+]2csc(CCO)c2C)c(N)n1.O=[N+]([O-])[O-] + O + CO ?
Solution: 1.2

Problem: // query solubility (g/100 g solution) value for entry Cc1ncc(C[n+]2csc(CCO)c2C)c(N)n1.O=[N+]([O-])[O-] + O + CC(C)O
Solution: 1.18

Problem: Please look up its solubility (g/100 g solution): S=c1[nH]ncs1 + CO + O
Solution: 10.1

Problem: Please give the measured solubility (g/100 g solution) for this compound: S=c1[nH]ncs1 + CCO + O
Solution: 8.73

Problem: # input compound: S=c1[nH]ncs1 + CCCO + O ; wanted: its solubility (g/100 g solution)
Solution: 6.73
